Tested on: Staphylococcus aureus
Experiment Description: The compound was tested for minimum inhibitory concentration in Staphylococcus aureus Oxford penicillin sensitive Staphylococcus aureus
Assay type: functional
We begin with a simple list: items and their reported MIC.
Endpoint: MIC (µg/mL)

>>> meas_value("CC(C)(O/N=C(\\C(=O)N[C@@H]1C(=O)N2C(C(=O)O)=C(CCOC(=O)c3cc(O)c(O)c(Br)c3)CSC12)c1csc(N)n1)C(=O)O (stereo not given in full)")
8
>>> meas_value("CC(C)(O/N=C(\\C(=O)N[C@@H]1C(=O)N2C(C(=O)O)=C(CCNC(=O)c3cc(O)c(O)c(Br)c3)CSC12)c1csc(N)n1)C(=O)O (stereo not given in full)")
16
>>> meas_value("CC(C)(O/N=C(\\C(=O)N[C@@H]1C(=O)N2C(C(=O)O)=C(CCNC(=O)CNC(=O)c3cc(O)c(O)c(Br)c3)CSC12)c1csc(N)n1)C(=O)O (stereo not given in full)")
8
>>> meas_value("CC(C)(O/N=C(\\C(=O)N[C@@H]1C(=O)N2C(C(=O)O)=C(CCc3ccc(O)c(O)c3)CSC12)c1csc(N)n1)C(=O)O (stereo not given in full)")
8
>>> meas_value("CC(C)(O/N=C(\\C(=O)N[C@@H]1C(=O)N2C(C(=O)O)=C(CCCC(=O)c3cc(O)c(O)c(Cl)c3)CSC12)c1csc(N)n1)C(=O)O (stereo not given in full)")
16

* * *

Experiment Description: The half life period was tested
Type: ADME
Endpoint: half-life

>>> meas_value("CC(C)(O/N=C(\\C(=O)N[C@@H]1C(=O)N2C(C(=O)[O-])=C(C[n+]3ccccc3)CS[C@H]12)c1csc(N)n1)C(=O)O")
"42 min"

* * *

Experiment Description: physchem
Description: The dissociation constant of compound was tested for beta-Lactamase stability
Record Yes whenever pKa is at 7 or higher; record No when lower.

>>> category_label("CCN(CC1=C(C(=O)O)N2C(=O)[C@@H](NC(=O)/C(=N\\OC(C)(C)C(=O)O)c3csc(N)n3)C2SC1)C(=O)c1cc(O)c(O)c(Cl)c1 (stereo partly specified)")
"Yes"
>>> category_label("CCn1cc(C(=O)NCC2=C(C(=O)O)N3C(=O)[C@@H](NC(=O)/C(=N\\OC(C)(C)C(=O)O)c4csc(N)n4)C3SC2)c(=O)c2c(C#N)c(O)c(O)cc21 (stereo partly specified)")
"No"
>>> category_label("CC(C)(O/N=C(\\C(=O)N[C@@H]1C(=O)N2C(C(=O)O)=C(CCOC(=O)c3cc(O)c(O)c(Br)c3)CSC12)c1csc(N)n1)C(=O)O (stereo partly specified)")
"No"
>>> category_label("CC(C)(O/N=C(\\C(=O)N[C@@H]1C(=O)N2C(C(=O)O)=C(CNS(=O)(=O)c3ccc(O)c(O)c3)CSC12)c1csc(N)n1)C(=O)O (stereo partly specified)")
"Yes"

* * *

Test system: Escherichia coli
Experiment Description: microbe, parasite or virus in culture
Description: In vitro minimum inhibitory concentration against Escherichia coli (DC0 parent organism).
Endpoint: MIC (ng/mL)

>>> meas_value("CCO/N=C(\\C(=O)N[C@@H]1C(=O)N2C(C(=O)O)=C(CNC(=O)c3cn(CC)c4cc(O)c(O)cc4c3=O)CSC12)c1csc(N)n1 (some centres not stated)")
8
>>> meas_value("Nc1nc(/C(=N/OC(C(=O)O)c2ccccc2)C(=O)N[C@@H]2C(=O)N3C(C(=O)O)=C(CNC(=O)c4cc(O)c(O)c(Br)c4)CSC23)cs1 (some centres not stated)")
8
>>> meas_value("CC(C)(O/N=C(\\C(=O)N[C@@H]1C(=O)N2C(C(=O)O)=C(CCNC(=O)c3cc(O)c(O)c(Br)c3)CSC12)c1csc(N)n1)C(=O)O (some centres not stated)")
8
>>> meas_value("CCO/N=C(\\C(=O)N[C@@H]1C(=O)N2C(C(=O)O)=C(CNC(=O)c3ccc(O)c(O)c3)CSC12)c1csc(N)n1 (some centres not stated)")
60
>>> meas_value("CC(C)(O/N=C(\\C(=O)N[C@@H]1C(=O)N2C(C(=O)O)=C(CCNC(=O)Nc3ccc(O)c(O)c3)CSC12)c1csc(N)n1)C(=O)O (some centres not stated)")
60
>>> meas_value("CC(C)(O/N=C(\\C(=O)N[C@@H]1C(=O)N2C(C(=O)O)=C(CCc3ccc(O)c(O)c3)CSC12)c1csc(N)n1)C(=O)O (some centres not stated)")
125
>>> meas_value("CCn1cc(C(=O)NCC2=C(C(=O)O)N3C(=O)[C@@H](NC(=O)/C(=N\\OC(C)(C)C(=O)O)c4csc(N)n4)C3SC2)c(=O)c2cc(O)c(O)cc21 (some centres not stated)")
8
>>> meas_value("Nc1nc(/C(=N/OC2(C(=O)O)CCCC2)C(=O)N[C@@H]2C(=O)N3C(C(=O)O)=C(CNC(=O)c4cc(O)c(O)c(Br)c4)CSC23)cs1 (some centres not stated)")
8
>>> meas_value("CC(C)(O/N=C(\\C(=O)N[C@@H]1C(=O)N2C(C(=O)O)=C(CCNC(=O)CNC(=O)c3cc(O)c(O)c(Br)c3)CSC12)c1csc(N)n1)C(=O)O (some centres not stated)")
15
>>> meas_value("CCO/N=C(\\C(=O)N[C@@H]1C(=O)N2C(C(=O)O)=C(CNC(=O)c3cc(O)c(O)c(Br)c3)CSC12)c1csc(N)n1 (some centres not stated)")
8
>>> meas_value("C=C(CO/N=C(\\C(=O)N[C@@H]1C(=O)N2C(C(=O)O)=C(CNC(=O)c3cc(O)c(O)c(Br)c3)CSC12)c1csc(N)n1)C(=O)O (some centres not stated)")
8
>>> meas_value("CC(C)(O/N=C(\\C(=O)N[C@@H]1C(=O)N2C(C(=O)O)=C(CCCC(=O)c3cc(O)c(O)c(Cl)c3)CSC12)c1csc(N)n1)C(=O)O (some centres not stated)")
8
>>> meas_value("CC(=O)Oc1ccc(C(=O)OCC2=C(C(=O)O)N3C(=O)[C@@H](NC(=O)Cc4cccs4)C3SC2)cc1OC(C)=O (some centres not stated)")
500
>>> meas_value("CC(C)(O/N=C(/C(=O)N[C@@H]1C(=O)N2C(C(=O)O)=C(COC(=O)c3ccc(O)c(O)c3)CSC12)c1csc(N)n1)C(=O)O (some centres not stated)")
8
>>> meas_value("CC(C)(O/N=C(\\C(=O)N[C@@H]1C(=O)N2C(C(=O)O)=C(CCOC(=O)c3cc(O)c(O)c(Br)c3)CSC12)c1csc(N)n1)C(=O)O (some centres not stated)")
8
>>> meas_value("CC(C)(O/N=C(\\C(=O)N[C@@H]1C(=O)N2C(C(=O)O)=C(CNC(=O)c3cc(O)c(O)c(Cl)c3)CSC12)c1csc(N)n1)C(=O)O (some centres not stated)")
8
>>> meas_value("CC(C)(O/N=C(\\C(=O)N[C@@H]1C(=O)N2C(C(=O)O)=C(CNC(=O)c3ccc(O)c(O)c3)CSC12)c1csc(N)n1)C(=O)O (some centres not stated)")
8
